target: Recombinant human IDO (Homo sapiens); test: Bridge-IT tryptophan fluorescence assay of human IDO-1 inhibition; conditions: recombinant human IDO 7.5 nM, L-tryptophan
Sequence (P14902 whole entry): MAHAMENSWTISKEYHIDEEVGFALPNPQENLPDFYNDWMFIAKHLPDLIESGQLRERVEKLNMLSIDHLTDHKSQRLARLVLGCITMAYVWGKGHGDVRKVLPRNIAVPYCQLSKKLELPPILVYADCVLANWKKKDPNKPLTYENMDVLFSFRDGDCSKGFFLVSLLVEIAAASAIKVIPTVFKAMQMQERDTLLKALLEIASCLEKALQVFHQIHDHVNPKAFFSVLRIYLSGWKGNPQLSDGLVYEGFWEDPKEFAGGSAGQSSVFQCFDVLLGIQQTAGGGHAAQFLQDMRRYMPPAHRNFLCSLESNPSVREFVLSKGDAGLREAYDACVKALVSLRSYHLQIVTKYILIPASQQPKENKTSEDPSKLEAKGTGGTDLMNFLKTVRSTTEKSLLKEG
pIC50: −log10 of the molar value.
Measured pIC50 by item

Example results:
{"compound": "COc1ccc2c(n1)C(CC(N)C1CCC(C)(C)CC1)n1cncc1-2 (single isomer, unassigned) [Compound 119b]", "test_system": "Recombinant human IDO (Homo sapiens)", "observed_measurement": "< 6.00"}
{"compound": "OCC1CCC(F)(CCC2c3ccccc3-c3cncn32)CC1 (single isomer, unassigned) [Compound 59a]", "test_system": "Recombinant human IDO (Homo sapiens)", "observed_measurement": "< 6.00"}
{"compound": "OC1(C2CCC(F)(CCC3c4ccccc4-c4cncn43)CC2)CC1 (single isomer, unassigned) [Compound 60c]", "test_system": "Recombinant human IDO (Homo sapiens)", "observed_measurement": "< 6.00"}
{"compound": "FC1(CCC2c3c(Cl)cccc3-c3cncn32)CCCCC1 (single isomer, unassigned) [Compound 70b]", "test_system": "Recombinant human IDO (Homo sapiens)", "observed_measurement": "6.00 to 7.00"}
{"compound": "CC1(C)CCC(C(O)CC2c3nc(F)ccc3-c3cncn32)CC1 (single isomer, unassigned) [Compound 25a]", "test_system": "Recombinant human IDO (Homo sapiens)", "observed_measurement": "< 6.00"}

pIC50 for OC(CC1c2c(Cl)cccc2-c2cncn21)C1(F)CCCCC1 (single isomer, unassigned) [Compound 83d] ?
> 7.00

pIC50 for O=C(C1CCC(F)(CCC2c3ncccc3-c3cncn32)CC1)N1CCCCC1 (mixture of isomers) [Compound 100a] ?
6.00 to 7.00

pIC50 for OC(CC1c2ncccc2-c2cncn21)C1(F)CCCCC1 (single isomer, unassigned) [Compound 109c] ?
6.00 to 7.00

pIC50 for OC(CC1c2c(Cl)cccc2-c2cncn21)C1(F)CCCCC1 (single isomer, unassigned) [Compound 83c] ?
< 6.00

pIC50 for OC(CC1c2ncccc2-c2cncn21)C1(F)CCCCC1 (stereo not drawn) [Compound 109b] ?
6.00 to 7.00

pIC50 for CC(C)(O)C1CCC(F)(CCC2c3ccccc3-c3cncn32)CC1 (single isomer, unassigned) [Compound 61c] ?
> 7.00

pIC50 for O=C(O)C1CCC(F)(CCC2c3c(F)cccc3-c3cncn32)CC1 (single isomer, unassigned) [Compound 80b] ?
6.00 to 7.00
